Measured pest or weed control at 400 ppm of individual entries
# System: Bemisia tabaci imagoes
# PROTOCOL_NOTES: Test Example 1: cabbage leaf disc immersion test on Bemisia tabaci imagoes, controlling value after 4 days
# Type: in vivo
# COND: foliar, 96 h, compound I alone 400 ppm, cabbage leaf disc immersed 30 seconds

{"MOL": "COC(=O)NNC(=O)c1cc(Cl)cc(Br)c1NC(=O)c1cc(Br)nn1-c1ncccc1Cl", "pest or weed control at 400 ppm": "90%"}
{"MOL": "COC(=O)NNC(=O)c1cc(Br)cc(C)c1NC(=O)c1cc(C(F)(F)F)nn1-c1ncccc1Cl", "pest or weed control at 400 ppm": "100%"}
{"MOL": "COC(=O)N(C)NC(=O)c1cc(Br)cc(Br)c1NC(=O)c1cc(Br)nn1-c1ncccc1Cl", "pest or weed control at 400 ppm": "100%"}

Every entry's value here was drawn from patent US20100099692A1.
